assay: MMV: MTT Cytotoxicity Assay Day 3 pi, U87-CD4-CCR5 cells, % cell death @ 5mM compound; assay type: toxicity, cell-based; details: human, u87-cd4-ccr5, 5000 µM
The following compounds are listed with their measured % Cell Death values.
# respond with the number and nothing more

>>> print(df.to_string())
                                   compound  value_measured
0           Oc1ccc(Cl)cc1CNc1nc2ccccc2[nH]1             -44
1  CCCCCC(=O)N1c2ccccc2N=C2CC(c3ccc(OC)c(OC)c3)CC(O)=C2C1c1ccc(C(F)(F)F)cc1 (stereo not given)              11
2  Br.CCN(CC)S(=O)(=O)c1ccc(-c2csc(Nc3ccc(C)c(C)c3)n2)cc1             -17
3  O=[N+]([O-])c1ccc(C=NNc2nc3ccccc3[nH]2)cc1              32
4  COc1ccc(C(=O)C(CCC(CNC(C)(C)C)C(=O)c2ccc(OC)cc2)CNC(C)(C)C)cc1 (stereo not given)              94
5  COc1ccc(C(=O)C2CC2c2ccc(Cl)cc2)cc1 (stereo not given)              40
6  Cc1cccc(-n2ncc3c(O)nc(-n4nc(C)cc4NC(=O)c4cc5ccccc5o4)nc32)c1               6
7  Cc1ccc(N2C3c4ccccc4N(S(=O)(=O)c4ccc(C)cc4)C2c2ccccc2N3S(=O)(=O)c2ccc(C)cc2)cc1              26

Report measured % Cell Death; entry is CCOc1c(Cl)cc(CNCC(O)c2ccccc2)cc1OC (stereo not given)
14

Specify measured % Cell Death for CCOC(=O)c1c(C)n(-c2ccc(Cl)cc2)c2ccc(OC(=O)C=Cc3ccccc3)cc12 .
18

---

assay: MMV: MTT Cytotoxicity Assay Day 7 pi of Assay #11 (NO washout), U87-CD4-CXCR4 cells, % cell death @ 5mM compound; format: toxicity, cell-based; conditions: human, u87-cd4-cxcr4, 5000 µM
# % Cell Death values compiled below

Answered cases to consult:
In [3]: df
Out[3]:
                                   molecule  value_measured
0  COc1ccc2c(c1)OC(O)(C(F)(F)C(F)(F)F)CC2=O (stereo unspecified)              88
1  CCOc1cccc2sc(N(Cc3cccnc3)C(=O)C3CCCCC3)nc12              52
2              Cc1nc2ccccc2c(O)c1CC=C(Cl)Cl              -3

Now, please, on to the next molecule.
Item CC(=O)c1sc(NC(=O)Nc2ccc(C)cc2C)nc1C : provide % Cell Death
20

---

assay: MMV: MTT Cytotoxicity Assay Day 7 pi of Assay #11 (NO washout), U87-CD4-CXCR4 cells, % cell death @ 5mM compound; format: toxicity, cell-based; conditions: human, u87-cd4-cxcr4, 5000 µM
Binary label based on % Cell Death with cut-off 40: below gives Condition met, not below gives Condition not met.

Worked cases, answers included:
>>> print(df.to_string())
                                   compound   class_assignment
0  O=C(NCC(c1ccsc1)N1CCCCCC1)c1ccc(C(F)(F)F)cc1 (configuration not stated)      Condition met
1  COc1ccc(N2CCN(C(CNC(=O)CC(C)(C)C)c3ccc4c(c3)OCO4)CC2)cc1 (configuration not stated)      Condition met
2  Nc1ccn([C@@H]2O[C@H](CO)[C@@H](O)[C@H]2O)c(=O)n1 [CYTIDINE]      Condition met
3  COc1ccc(C(=O)C2CC2c2ccc(Cl)cc2)cc1 (configuration not stated)      Condition met
4  CCCCCCc1cc2cc(-c3nc4ccccc4[nH]3)c(=Nc3ccccc3C)oc2cc1O  Condition not met

Dear colleague, could you confirm whether % Cell Death of COc1ccc(-c2nc3cc(Cc4ccc5[nH]c(-c6ccc(OC)cc6)nc5c4)ccc3[nH]2)cc1 falls below 40? Thanks.
Condition met

Hi there! Is % Cell Death for C[n+]1c2ccccc2nc2ccc(NCCO)cc21 below 40, do you know?
Condition met

# strict comparison: is reported % Cell Death < 40? input = N=c1c2ccccc2nnn1-c1cccc(C(F)(F)F)c1
Condition not met

Below 40 on % Cell Death? Entry c1ccc(-c2ccc(-c3nc4ccccc4[nH]3)cc2)cc1
Condition not met

A record lists CN1CCN(c2ncnc3c2[nH]c2ccc(Cl)cc23)CC1 . Is its % Cell Death below 40?
Condition met

Please let me know if COc1ccc(-c2cn3c(C(=O)Nc4ccccc4Cl)c(-c4ccccc4)c4c3n2CCCC4)cc1 shows % Cell Death below 40.
Condition met

Here's an entry: COc1ccc2nc(N)nc(C)c2c1 . Is its % Cell Death below 40?
Condition met

---

assay: MMV: MTT Cytotoxicity Assay Day 3 pi, U87-CD4-CCR5 cells, % cell death @ 5mM compound; assay type: toxicity, cell-based; details: human, u87-cd4-ccr5, 5000 µM
Entries annotated with measured % Cell Death
I only need the number, thanks.

In [3]: df
Out[3]:
                               compound  value_measured
0  CCOC(=O)c1cnc2ccc(OC)cc2c1NCc1ccccc1             -52
1  Cc1ccc2cc3c(N)c4c(C)ccc(C)c4nc3nc2c1              -9

Give the reported value of % Cell Death for this record: CC(C)OCc1cc(CN2CCN(c3cccc(Cl)c3)CC2)c(O)c2ncccc12
14

Return value of % Cell Death for input CC(C)(C)C(=O)Nc1ccc(C(=O)Nc2cccc(-c3nc4ccccc4[nH]3)c2)cc1 , no commentary.
17

Tell us which % Cell Death value is on record for O=C(Nc1ccc(Br)cc1)Nc1cccc(Cl)c1
9

Look up % Cell Death of Cc1cccc(Nc2nc(N)c3ccccc3n2)c1.Cl and report it.
7

Retrieve % Cell Death measured for COc1ccc(C2c3ccc4ccccc4c3Oc3ncn(CCCn4ccnc4)c(=N)c32)cc1OC (stereo unspecified) and print it.
39

Find the measured % Cell Death of CCOc1cccc2sc(N(Cc3cccnc3)C(=O)C3CCCCC3)nc12 and report it.
2

Supply % Cell Death value. Item: O=C(Nc1ccc(-c2nc3ccccc3[nH]2)cc1)c1ccc(Cl)c(Cl)c1
38

Identify the reported % Cell Death for the following entry. CC(NCc1ccccc1)c1cc(Cl)ccc1O (stereo unspecified)
1

Report measured % Cell Death; entry is COc1ccc(C2Sc3ccccc3N=C3C2=C(O)c2ccccc23)cc1 (stereo unspecified)
0

---

assay: MMV: MTT Cytotoxicity Assay Day 7 pi of Assay #7 (compound washed out Day 1 pi), U87-CD4-CXCR4 cells, % cell death @ 5mM compound; assay type: toxicity, cell-based; conditions: human, u87-cd4-cxcr4, 5000 µM
// % Cell Death lookup, one value per entry
Would you mind answering with just the numeric figure?

Report % Cell Death, nothing else, for this molecule: CC(C)c1ccc(CNCC(O)c2ccccc2)cc1.Cl (stereo not given)
-18

Supply measured % Cell Death of COc1ccc(CCN2CCC(CN(C)Cc3cnn(-c4ccccc4)c3)CC2)cc1 in your reply.
16

Please list % Cell Death recorded for the molecule OC(CNC1CCCCC1)Cn1c2ccc(I)cc2c2cc(I)ccc21 (stereo not given)
-9

Fill in reported % Cell Death for this entry: N=c1n(CCN2CCCCC2)c2ccccc2n1CC(=O)c1ccc(Cl)c(Cl)c1
4

Look up and report measured % Cell Death for this entry: COc1ccc(C2NCCc3c2[nH]c2ccccc32)cc1CN1CCN(c2ccc(F)cc2)CC1.Cl (stereo not given)
-8

---

assay: MMV: MTT Cytotoxicity Assay Day 7 pi of Assay #11 (NO washout), U87-CD4-CXCR4 cells, % cell death @ 5mM compound; assay type: toxicity, cell-based; conditions: human, u87-cd4-cxcr4, 5000 µM
Strictly below 20 in % Cell Death: yes. Otherwise: no.

Example cases with answers are listed next.
In [3]: df
Out[3]:
                                   compound  class_assignment
0  O=C1c2ccccc2C2=Nc3ccccc3SC(c3cccc(F)c3)C12 (centres undefined)               yes
1  Cc1ccc(-c2cc(C(=O)Nc3ccc(S(=O)(=O)N4CCCCC4)cc3)[nH]n2)c(O)c1               yes
2  CCCCCCc1cc2cc(-c3csc(C=Cc4ccccc4)n3)c(=O)oc2cc1O               yes
3  CC1CCN(Cc2c(O)ccc3cc(-c4nc5ccccc5s4)c(=O)oc23)CC1               yes
4  OC(CNC1CCCCC1)Cn1c2ccc(I)cc2c2cc(I)ccc21 (centres undefined)                no

Is it true that % Cell Death reported for COc1ccccc1C(=O)ON=C(N)Cc1cccc2ccccc12 is less than 20?
yes

Dear reviewer, please state whether Cc1cccc(-n2ncc3c(O)nc(-n4nc(C)cc4NC(=O)c4cc5ccccc5o4)nc32)c1 has % Cell Death strictly beneath 20.
no

% Cell Death strictly < 20 for this compound? Cc1ccc(-c2cc3c(nn2)-c2ccccc2C3=O)cc1
no

Consider the compound Oc1ccc(-c2nc(-c3ccc4oc5ccc(-c6[nH]c(-c7ccc(O)cc7)nc6-c6ccccc6)cc5c4c3)c(-c3ccccc3)[nH]2)cc1 . Is its % Cell Death strictly less than 20?
no

Input COc1cccc(NC(=O)Cn2c(C)c(C#N)c3ccccc32)c1 ; condition: % Cell Death strictly below 20. Does it hold?
yes

Is the reported % Cell Death for Nc1ccc(-c2nc3cc(Oc4ccc(Oc5ccc6[nH]c(-c7ccc(N)cc7)nc6c5)cc4)ccc3[nH]2)cc1 strictly below 20?
no

A record lists COc1ccc(C(=O)Nc2ccc(Cl)cc2C(=O)Nc2ccncc2)cc1 . Is its % Cell Death below 20?
no

Report whether reported % Cell Death is lower than 20 (strictly) for CN(C)CCNc1cc(-c2ccccc2)nc2ccccc12
no

Please check: % Cell Death for CCc1c(C)c(=N)c2ccccc2n1C.I , strictly under 20 or not?
yes
